Reported % cells killed, A431, anti-kappa-ETA'-conjugated is given for each of the following binders.
target: human epidermal growth factor receptor 2 (HER2), membrane-bound on cells (human, UniProt P04626 23-1255); assay: cell-based or functional assay
Reported metric: % cells killed, A431, anti-kappa-ETA'-conjugated (%)

INSERT INTO assay_data (binder, experimental_value) VALUES
  ('HuMab 084 (antibody, V domains shown, also called TH1014-084; PC1014-084) VH: QVQLVQSGAEVKKPGSSVKVSCKASGGTFRTYAINWVRQAPGQGLEWMGRINTVLGIVNHAQKFQGRVTITADKSTNTAYMELNSLRSEDTAVYYCAREKGVDYYYGIEVWGQGTTVTVSS VL: DIQMTQSPSSVSASVGDRVTITCRASQGISSWLAWYQHKPGKAPKLLIYVASTLQSGVPSRFSGSGSGTDFTLTISSLQPEDFATYYCQQANSFPLTFGGGTKVEIK', 50.5),
  ('HuMab 098 (antibody, V domains shown, also called TH1014-098; PC1014-098) VH: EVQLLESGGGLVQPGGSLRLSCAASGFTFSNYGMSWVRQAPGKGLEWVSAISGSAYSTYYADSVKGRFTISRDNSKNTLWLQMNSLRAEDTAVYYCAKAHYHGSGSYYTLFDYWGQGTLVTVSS VL: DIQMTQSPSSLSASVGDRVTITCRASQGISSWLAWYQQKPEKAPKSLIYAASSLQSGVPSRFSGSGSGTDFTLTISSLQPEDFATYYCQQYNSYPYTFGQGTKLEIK', 87.2),
  ('HuMab 025 (antibody, V domains shown, also called TH1014-025; PC1014-025) VH: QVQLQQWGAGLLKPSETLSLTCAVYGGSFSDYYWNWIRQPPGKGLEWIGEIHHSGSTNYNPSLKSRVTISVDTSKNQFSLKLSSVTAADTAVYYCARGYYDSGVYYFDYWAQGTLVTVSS VL: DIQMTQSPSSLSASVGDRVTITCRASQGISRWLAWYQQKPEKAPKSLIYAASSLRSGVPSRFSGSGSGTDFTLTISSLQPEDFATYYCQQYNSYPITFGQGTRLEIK', 86.7);
